Ref: ChEMBL document CHEMBL3430912

tested on: Leishmania donovani; assay: GSK_TCAKS: pIC50 Leishmania donovani viability assay using fluorescence intensity. Assay plates (1536-well) were prepared by adding 30nL per well of compound. For single shot assay, the final compound concentration was 5uM. […] Briefly, eGFP LdBOB axenic amastigotes were harvested, fixed and counted in a CASY cell counter (Roche-Applied Science). A final concentration of 1.5 * 10^5 cells per well were prepared in amastigote media containing 500 U/mL penicillin/streptomycin (Invitrogen) and 6uL was dispensed to each experimental well using a Multidrop Combi dispenser (Thermo Scientific). 6uL of assay media was dispensed to control columns used as reference for 100% compound response. Following incubation for 72 h at 37C, 5% CO2, 2 uL of resazurin was added to each well at a final concentration of 0.5 mM in phosphate buffered saline (PBS) with IGEPAL (Sigma-Aldrich), 0.05% (v/v).; assay type: functional, organism-based
Endpoint: pIC50
One number for each entry, as −log10 of the molar value.

{"Compound": "CCCCN(C(=O)c1ccc(NC(=O)C(C)C)cc1)c1ccccc1", "Endpoint": "pIC50", "Observed value": 6.00}
{"Compound": "CC(=O)Nc1ccc(-c2cnc(N)c(-c3nc4ccc(F)cc4[nH]3)c2)cc1", "Endpoint": "pIC50", "Observed value": 5.20}

// switching to the query compound
Report pIC50 on Leishmania donovani for this entry: O=C(Nc1cccc(Cl)c1)N1CCCCC1c1cccnc1 (stereo unspecified)
5.50
